# assay.target: Adenosine receptor A2a (Homo sapiens)
# Sequence (P29274 whole entry): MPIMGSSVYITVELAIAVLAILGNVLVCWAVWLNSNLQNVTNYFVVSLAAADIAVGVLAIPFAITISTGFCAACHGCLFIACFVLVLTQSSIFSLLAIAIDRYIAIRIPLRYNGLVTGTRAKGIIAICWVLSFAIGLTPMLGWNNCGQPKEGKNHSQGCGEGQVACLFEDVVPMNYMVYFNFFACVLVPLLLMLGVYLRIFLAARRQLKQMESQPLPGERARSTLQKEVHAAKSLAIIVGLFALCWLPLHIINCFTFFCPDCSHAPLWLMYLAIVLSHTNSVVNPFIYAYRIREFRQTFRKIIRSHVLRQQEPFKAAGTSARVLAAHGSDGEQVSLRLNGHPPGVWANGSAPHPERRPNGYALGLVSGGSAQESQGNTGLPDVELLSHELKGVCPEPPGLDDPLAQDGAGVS
# protocol.description: biochemical
# Description: Binding affinity for adenosine A2a receptor by using as [3H]ZM-241385 (2 nM) radioligand in membranes from HEK-A2A cells
pKi: −log10 of the molar value.
readout.kind: pKi

Data request: pKi lookup needed for CCCn1c(=O)c2[nH]c(-c3ccc(OCc4noc(-c5ccccc5OC)n4)cc3)nc2n(CCC)c1=O , thanks.
Data returned: 5.53

Data request: pKi lookup needed for CCCn1c(=O)c2nc(-c3ccc(OCc4nc(-c5ccccc5C)no4)cc3)[nH]c2n(CCC)c1=O , thanks.
Data returned: < 5.30

Data request: pKi lookup needed for CCCn1c(=O)c2nc(-c3ccc(OCc4noc(-c5cccc(C(F)(F)F)c5)n4)cc3)[nH]c2n(CCC)c1=O , thanks.
Data returned: < 5.30

Data request: pKi lookup needed for CCCn1c(=O)c2nc(-c3ccc(OCc4noc(-c5cccc(Cl)c5)n4)cc3)[nH]c2n(CCC)c1=O , thanks.
Data returned: < 5.30

Data request: pKi lookup needed for CCCn1c(=O)c2[nH]c(-c3ccc(OCc4noc(-c5ccc(C#N)cc5)n4)cc3)nc2n(CCC)c1=O , thanks.
Data returned: < 5.30

Data request: pKi lookup needed for CCCn1c(=O)c2nc(-c3ccc(OCc4noc(-c5ccc(C(F)(F)F)cc5)n4)cc3)[nH]c2n(CCC)c1=O , thanks.
Data returned: 5.31

Data request: pKi lookup needed for CCCn1c(=O)c2nc(-c3ccc(OCc4nc(-c5ccc(C#N)cc5)no4)cc3)[nH]c2n(CCC)c1=O , thanks.
Data returned: < 5.30

Data request: pKi lookup needed for CCCn1c(=O)c2nc(-c3ccc(OCc4nc(-c5cccc(Cl)c5)no4)cc3)[nH]c2n(CCC)c1=O , thanks.
Data returned: 6.39

Data request: pKi lookup needed for CCCn1c(=O)c2[nH]c(-c3ccc(OCc4nc(-c5ccc(C(F)(F)F)cc5)no4)cc3)nc2n(CCC)c1=O , thanks.
Data returned: < 5.30

Data request: pKi lookup needed for CCCn1c(=O)c2nc(-c3ccc(OCc4nc(-c5cccc(OC)c5)no4)cc3)[nH]c2n(CCC)c1=O , thanks.
Data returned: < 5.30

Data request: pKi lookup needed for CCCn1c(=O)c2[nH]c(-c3ccc(OCc4nc(-c5ccc(F)cc5)no4)cc3)nc2n(CCC)c1=O , thanks.
Data returned: < 5.30

Data request: pKi lookup needed for CCCn1c(=O)c2nc(-c3ccc(OCc4nc(-c5ccccc5Cl)no4)cc3)[nH]c2n(CCC)c1=O , thanks.
Data returned: < 5.30

* * *

# assay.target: Adenosine receptor A2a (Homo sapiens)
# protocol.description: biochemical
pKi: −log10 of the molar value.
readout.kind: pKi

Data request: pKi lookup needed for CCCn1c(=O)c2[nH]c(-c3ccc(OCc4noc(-c5cccc(F)c5)n4)cc3)nc2n(CCC)c1=O , thanks.
Data returned: < 5.30

Data request: pKi lookup needed for CCCn1c(=O)c2[nH]c(-c3ccc(OCc4noc(-c5ccc(F)cc5)n4)cc3)nc2n(CCC)c1=O , thanks.
Data returned: < 5.30

Data request: pKi lookup needed for CCCn1c(=O)c2[nH]c(-c3ccc(OCc4nc(-c5cccc(C(F)(F)F)c5)no4)cc3)nc2n(CCC)c1=O , thanks.
Data returned: < 5.30

Data request: pKi lookup needed for CCCn1c(=O)c2nc(-c3ccc(OCc4noc(-c5ccccc5C)n4)cc3)[nH]c2n(CCC)c1=O , thanks.
Data returned: < 4.82

Data request: pKi lookup needed for CCCn1c(=O)c2nc(-c3ccc(OCc4noc(-c5ccc(C)cc5)n4)cc3)[nH]c2n(CCC)c1=O , thanks.
Data returned: 6.00

Data request: pKi lookup needed for CCCn1c(=O)c2nc(-c3ccc(OCc4nc(-c5ccc(C)cc5)no4)cc3)[nH]c2n(CCC)c1=O , thanks.
Data returned: < 5.30

Data request: pKi lookup needed for CCCn1c(=O)c2nc(-c3ccc(OCc4nc(-c5ccccc5F)no4)cc3)[nH]c2n(CCC)c1=O , thanks.
Data returned: < 5.30

Data request: pKi lookup needed for CCCn1c(=O)c2nc(-c3ccc(OCc4nc(-c5cccc(C)c5)no4)cc3)[nH]c2n(CCC)c1=O , thanks.
Data returned: < 5.30

* * *

Consider the following molecules; for each one, report its pKi.
Entry type: numeric. Quantity: pKi, the -log10 of concentration in molar units.

Data request: # query: pKi | item CCCn1c(=O)c2nc(-c3ccc(OCc4nc(-c5cccc(Cl)c5)no4)cc3)[nH]c2n(CCC)c1=O | system: UniProt:P30542
Data returned: 8.19

Data request: # query: pKi | item CCCn1c(=O)c2[nH]c(-c3ccc(OCc4noc(-c5ccccc5OC)n4)cc3)nc2n(CCC)c1=O | system: UniProt:P30542
Data returned: 5.94

Data request: # query: pKi | item CCCn1c(=O)c2nc(-c3ccc(OCc4nc(-c5cccc(F)c5)no4)cc3)[nH]c2n(CCC)c1=O | system: UniProt:P30542
Data returned: 5.70

Data request: # query: pKi | item CCCn1c(=O)c2nc(-c3ccc(OCc4nc(-c5ccccc5C(F)(F)F)no4)cc3)[nH]c2n(CCC)c1=O | system: UniProt:P30542
Data returned: 6.33

* * *

# assay.target: Adenosine receptor A2a (Homo sapiens)
# protocol.description: biochemical
pKi: −log10 of the molar value.
readout.kind: pKi

Data request: # query: pKi | item CCCn1c(=O)c2nc(-c3ccc(OCc4nc(-c5ccccc5C(F)(F)F)no4)cc3)[nH]c2n(CCC)c1=O | system: Adenosine receptor A2a (Homo sapiens)
Data returned: 5.50

Data request: # query: pKi | item CCCn1c(=O)c2nc(-c3ccc(OCc4nc(-c5cccc(F)c5)no4)cc3)[nH]c2n(CCC)c1=O | system: Adenosine receptor A2a (Homo sapiens)
Data returned: < 5.30

Data request: # query: pKi | item CCCn1c(=O)c2nc(-c3ccc(OCc4nc(-c5ccc(OC)cc5)no4)cc3)[nH]c2n(CCC)c1=O | system: Adenosine receptor A2a (Homo sapiens)
Data returned: < 5.30

Data request: # query: pKi | item CCCn1c(=O)c2[nH]c(-c3ccc(OCc4nc(-c5ccccc5OC)no4)cc3)nc2n(CCC)c1=O | system: Adenosine receptor A2a (Homo sapiens)
Data returned: < 5.30

* * *

// Ki collected for Adenosine receptor A2b (Homo sapiens)
Could you give me the number in µM? Just the number is fine.

Data request: # query: Ki | item CCCn1c(=O)c2[nH]c(-c3ccc(OCc4noc(-c5cccc(C)c5)n4)cc3)nc2n(CCC)c1=O | system: Adenosine receptor A2b (Homo sapiens)
Data returned: 0.7

Data request: # query: Ki | item CCCn1c(=O)c2nc(-c3ccc(OCc4noc(-c5ccc(C)cc5)n4)cc3)[nH]c2n(CCC)c1=O | system: Adenosine receptor A2b (Homo sapiens)
Data returned: 0.091

Data request: # query: Ki | item CCCn1c(=O)c2nc(-c3ccc(OCc4noc(-c5ccc(Cl)cc5)n4)cc3)[nH]c2n(CCC)c1=O | system: Adenosine receptor A2b (Homo sapiens)
Data returned: 3.66

Data request: # query: Ki | item CCCn1c(=O)c2[nH]c(-c3ccc(OCc4nc(-c5ccc(C(F)(F)F)cc5)no4)cc3)nc2n(CCC)c1=O | system: Adenosine receptor A2b (Homo sapiens)
Data returned: 0.485

Data request: # query: Ki | item CCCn1c(=O)c2nc(-c3ccc(OCc4noc(-c5ccccc5F)n4)cc3)[nH]c2n(CCC)c1=O | system: Adenosine receptor A2b (Homo sapiens)
Data returned: 0.645

Data request: # query: Ki | item CCCn1c(=O)c2nc(-c3ccc(OCc4nc(-c5cccc(OC)c5)no4)cc3)[nH]c2n(CCC)c1=O | system: Adenosine receptor A2b (Homo sapiens)
Data returned: 1.68

Data request: # query: Ki | item CCCn1c(=O)c2nc(-c3ccc(OCc4nc(-c5ccc(C#N)cc5)no4)cc3)[nH]c2n(CCC)c1=O | system: Adenosine receptor A2b (Homo sapiens)
Data returned: 4.52

Data request: # query: Ki | item CCCn1c(=O)c2[nH]c(-c3ccc(OCc4nc(-c5ccc(Cl)cc5)no4)cc3)nc2n(CCC)c1=O | system: Adenosine receptor A2b (Homo sapiens)
Data returned: 5.17

* * *

# assay.target: Adenosine receptor A2b (Homo sapiens, UniProt P29275)
# protocol.description: Binding affinity for adenosine A2b receptor by using as [3H]ZM-241385 radioligand in membranes from HEK-A2B cells
readout.kind: pKi
Entry type: numeric. Quantity: pKi, the -log10 of concentration in molar units.

Data request: pKi lookup needed for CCCn1c(=O)c2[nH]c(-c3ccc(OCc4nc(-c5ccc(F)cc5)no4)cc3)nc2n(CCC)c1=O , thanks.
Data returned: 6.67

* * *

Consider the following molecules; for each one, report its pKi.
Protein target, amino acids: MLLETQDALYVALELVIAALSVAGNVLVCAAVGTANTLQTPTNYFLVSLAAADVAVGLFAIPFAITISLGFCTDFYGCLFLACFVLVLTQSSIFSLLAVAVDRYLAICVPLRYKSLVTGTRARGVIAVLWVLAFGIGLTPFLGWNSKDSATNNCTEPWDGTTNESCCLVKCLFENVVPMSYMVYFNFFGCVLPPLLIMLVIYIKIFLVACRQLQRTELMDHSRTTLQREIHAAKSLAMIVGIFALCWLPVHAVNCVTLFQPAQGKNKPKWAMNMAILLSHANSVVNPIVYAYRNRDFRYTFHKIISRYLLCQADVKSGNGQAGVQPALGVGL
Entry type: numeric. Quantity: pKi, the -log10 of concentration in molar units.

Data request: pKi lookup needed for CCCn1c(=O)c2nc(-c3ccc(OCc4nc(-c5ccccc5C(F)(F)F)no4)cc3)[nH]c2n(CCC)c1=O , thanks.
Data returned: 6.49

Data request: pKi lookup needed for CCCn1c(=O)c2nc(-c3ccc(OCc4noc(-c5cccc(Cl)c5)n4)cc3)[nH]c2n(CCC)c1=O , thanks.
Data returned: 5.68

Data request: pKi lookup needed for CCCn1c(=O)c2nc(-c3ccc(OCc4nc(-c5ccc(C)cc5)no4)cc3)[nH]c2n(CCC)c1=O , thanks.
Data returned: 6.28

Data request: pKi lookup needed for CCCn1c(=O)c2[nH]c(-c3ccc(OCc4nc(-c5cccc(C(F)(F)F)c5)no4)cc3)nc2n(CCC)c1=O , thanks.
Data returned: 6.02
